- assay-system: CFTR (F508del/MF-HBE cells) (Homo sapiens, UniProt P13569, DEL508-508)
- Construct: human bronchial epithelial (HBE) cells derived from CF subjects heterozygous for F508del and a minimal function CFTR mutation; endogenous in cells
- Sequence (P13569 with tags, fused parts or gaps DEL508-508): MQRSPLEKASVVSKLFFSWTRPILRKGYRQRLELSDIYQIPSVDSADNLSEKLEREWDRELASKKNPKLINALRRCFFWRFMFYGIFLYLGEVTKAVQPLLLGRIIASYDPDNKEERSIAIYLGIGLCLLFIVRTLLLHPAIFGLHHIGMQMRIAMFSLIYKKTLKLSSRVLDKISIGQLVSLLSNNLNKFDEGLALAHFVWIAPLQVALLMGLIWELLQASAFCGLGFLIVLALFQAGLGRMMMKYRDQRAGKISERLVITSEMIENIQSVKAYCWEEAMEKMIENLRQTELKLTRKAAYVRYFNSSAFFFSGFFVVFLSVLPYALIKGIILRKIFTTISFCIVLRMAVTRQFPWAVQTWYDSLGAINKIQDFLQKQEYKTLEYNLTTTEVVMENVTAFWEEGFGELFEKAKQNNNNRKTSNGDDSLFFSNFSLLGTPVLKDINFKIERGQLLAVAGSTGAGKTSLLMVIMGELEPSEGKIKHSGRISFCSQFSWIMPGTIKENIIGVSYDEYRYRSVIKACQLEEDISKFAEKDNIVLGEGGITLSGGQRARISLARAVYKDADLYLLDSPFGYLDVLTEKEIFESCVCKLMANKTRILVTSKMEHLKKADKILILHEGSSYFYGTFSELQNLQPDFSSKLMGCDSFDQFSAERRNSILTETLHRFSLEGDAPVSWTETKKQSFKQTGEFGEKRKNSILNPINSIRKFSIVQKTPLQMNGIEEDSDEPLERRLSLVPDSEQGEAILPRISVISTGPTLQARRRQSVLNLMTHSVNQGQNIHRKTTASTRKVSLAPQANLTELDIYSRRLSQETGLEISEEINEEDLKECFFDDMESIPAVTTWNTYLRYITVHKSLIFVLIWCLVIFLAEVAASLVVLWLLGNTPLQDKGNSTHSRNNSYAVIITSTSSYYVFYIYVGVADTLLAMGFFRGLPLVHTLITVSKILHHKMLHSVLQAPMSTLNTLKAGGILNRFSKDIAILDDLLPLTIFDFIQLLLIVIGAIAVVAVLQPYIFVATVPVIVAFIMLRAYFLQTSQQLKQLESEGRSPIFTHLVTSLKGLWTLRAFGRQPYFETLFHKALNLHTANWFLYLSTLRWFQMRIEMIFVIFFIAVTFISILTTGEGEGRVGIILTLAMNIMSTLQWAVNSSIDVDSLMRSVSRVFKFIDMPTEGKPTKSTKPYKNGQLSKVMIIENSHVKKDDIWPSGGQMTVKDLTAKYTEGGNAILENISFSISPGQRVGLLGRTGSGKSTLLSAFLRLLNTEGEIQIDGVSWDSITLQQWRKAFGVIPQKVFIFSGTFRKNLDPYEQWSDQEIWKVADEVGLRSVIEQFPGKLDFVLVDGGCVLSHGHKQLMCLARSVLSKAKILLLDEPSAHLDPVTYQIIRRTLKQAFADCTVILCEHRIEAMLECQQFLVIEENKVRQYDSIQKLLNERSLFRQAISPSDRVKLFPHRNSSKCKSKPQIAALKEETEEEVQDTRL
- method: Ussing chamber assay of CFTR-mediated short-circuit currents (identification of potentiator compounds)
- measurement-conditions: CFTR-mediated ISC in F508del/MF-HBE cells; incubated 18-24 hours at 37° C. with 10 μM (14S)-8-[3-(2-{dispiro[2.0.2.1]heptan-7-yl}ethoxy)-1H-pyrazol-1-yl]-...-2,2,4-trione, 20% human serum
pEC50: −log10 of the molar value.
Hi there, I'd appreciate the recorded pEC50 for every entry that follows.

Query :: GET /values?readout=pEC50&item= Nc1cc(C(F)(F)F)c2nc1-c1nnc(o1)/C(C(F)(F)F)=C\CCCC[C@@H]1CCCN21 [Compound 10]
Result :: < 6.00

Query :: GET /values?readout=pEC50&item= Nc1cc(C(F)(F)F)c2nc1-c1nnc(o1)C(O)(C(F)(F)F)CCCC[C@@H]1CCCN21 (single isomer, unassigned) [Compound 32]
Result :: > 6.30

Query :: GET /values?readout=pEC50&item= Nc1cc(C(F)(F)F)c2nc1-c1nnc(o1)C(O)(C(F)(F)F)CCCCCCC(=O)N2 (single isomer, unassigned) [Compound 106]
Result :: > 6.30

* * *

- assay-system: CFTR (F508del/MF-HBE cells) (Homo sapiens, UniProt P13569, DEL508-508)
- Construct: human bronchial epithelial (HBE) cells derived from CF subjects heterozygous for F508del and a minimal function CFTR mutation; endogenous in cells
- method: Ussing chamber assay of CFTR-mediated short-circuit currents (identification of potentiator compounds)
- measurement-conditions: CFTR-mediated ISC in F508del/MF-HBE cells; incubated 18-24 hours at 37° C. with 10 μM (14S)-8-[3-(2-{dispiro[2.0.2.1]heptan-7-yl}ethoxy)-1H-pyrazol-1-yl]-...-2,2,4-trione, 20% human serum
pEC50: −log10 of the molar value.
endpoint: pEC50

Query :: Record Nc1cc(C(F)(F)F)c2nc1-c1nnc(o1)C(O)(C(F)(F)F)CCCCCCN2 (single isomer, unassigned) : what is its pEC50 with CFTR (F508del/MF-HBE cells) (Homo sapiens, UniProt P13569, DEL508-508)?
Result :: > 6.30

Query :: Record Nc1cc(C(F)(F)F)c2nc1-c1nnc(o1)C(O)(C(F)(F)F)c1cc(ccn1)CCC[C@@H]1CCCN21 (single isomer, unassigned) [Compound 85] : what is its pEC50 with CFTR (F508del/MF-HBE cells) (Homo sapiens, UniProt P13569, DEL508-508)?
Result :: < 6.00

Query :: Record CC1(C)CCCCC(O)C(O)(C(F)(F)F)C2=NN=C(O2)c2nc(c(C(F)(F)F)cc2N)N1 (single isomer, unassigned) [Compound 194] : what is its pEC50 with CFTR (F508del/MF-HBE cells) (Homo sapiens, UniProt P13569, DEL508-508)?
Result :: > 6.30

Query :: Record Nc1cc(C(F)(F)F)c2nc1-c1nnc(o1)C(O)(C(F)(F)F)CCCCCCC1CCCN21 (single isomer, unassigned) [Compound 23] : what is its pEC50 with CFTR (F508del/MF-HBE cells) (Homo sapiens, UniProt P13569, DEL508-508)?
Result :: > 6.30

Query :: Record Nc1cc(C(F)(F)F)c2nc1-c1nnc(o1)[C@@](O)(C(F)(F)F)CCCCCC(C1CC1)N2 (single isomer, unassigned) [Compound 192] : what is its pEC50 with CFTR (F508del/MF-HBE cells) (Homo sapiens, UniProt P13569, DEL508-508)?
Result :: > 6.30

Query :: Record Nc1cc(C(F)(F)F)c2nc1-c1nnc(o1)[C@@](O)(C(F)(F)F)CCCCCC(c1ccc(F)cc1)N2 (single isomer, unassigned) : what is its pEC50 with CFTR (F508del/MF-HBE cells) (Homo sapiens, UniProt P13569, DEL508-508)?
Result :: > 6.30
